Ref: ChEMBL document CHEMBL3272098

Overview of recorded Activity for various compounds
system: Mus musculus; assay: Toxicity in BDF1 mouse allografted with mouse L1210 cells assessed as reduction in average life span at 200 mg/kg, ip administered 24 hrs post-implantation measured up to 30 days relative to control; format: organism-based; design: dose 200 mg/kg, route intraperitoneal; scale not given: the % may be the effect or the level left; settings: in vivo
Give the number; % is assumed, so skip it.

Examples with answers:
>>> recorded_value("CCCCCCCCCC(=O)OC[C@H]1O[C@@H]2[C@@H](Oc3nc(=N)ccn32)[C@@H]1OC(=O)CCCCCCCCC.Cl")
69
>>> recorded_value("C=CCCCCCCCCC(=O)OC[C@H]1O[C@@H]2[C@@H](Oc3nc(=N)ccn32)[C@@H]1OC(=O)CCCCCCCCC=C.Cl")
74
>>> recorded_value("CCCCCC(=O)OC[C@H]1O[C@@H]2[C@@H](Oc3nc(=N)ccn32)[C@@H]1OC(=O)CCCCC.Cl")
61
>>> recorded_value("CCCCCCCCC(=O)OC[C@H]1O[C@@H]2[C@@H](Oc3nc(=N)ccn32)[C@@H]1OC(=O)CCCCCCCC.Cl")
88
>>> recorded_value("C/C=C/C=C/C(=O)OC[C@H]1O[C@@H]2[C@@H](Oc3nc(=N)ccn32)[C@@H]1OC(=O)/C=C/C=C/C.Cl")
100

Moving on to the next compound.
**Q:** For "CC(=O)O[C@H]1[C@@H]2Oc3nc(=N)ccn3[C@@H]2O[C@@H]1COC(=O)C12CC3CC(CC(C3)C1)C2.Cl" , write its Activity.
**A:** 100

====

system: HeLa; test: Cytotoxicity against human HeLa cells after 48 hrs by Coulter counting analysis; type: functional; conditions: read-out: ED50 (the source's name)
The threshold is 0.2 µg/mL. Values of EC50 beneath it are tagged 1 (yes); values meeting or exceeding it are tagged 0 (no).

>>> class("CCCCCCCCCCCC(=O)OC[C@H]1O[C@@H]2[C@@H](Oc3nc(=N)ccn32)[C@@H]1OC(=O)CCCCCCCCCCC.Cl")
"0 (no)"

**Q:** Item "C=CCCCCCCCCC(=O)OC[C@H]1O[C@@H]2[C@@H](Oc3nc(=N)ccn32)[C@@H]1OC(=O)CCCCCCCCC=C.Cl" : EC50 beneath 0.2 µg/mL, strictly?
**A:** 1 (yes)

**Q:** In the record for "CCCCCCCC/C=C\CCCCCCCC(=O)OC[C@H]1O[C@@H]2[C@@H](Oc3nc(=N)ccn32)[C@@H]1OC(=O)CCCCCCC/C=C\CCCCCCCC.Cl" , is EC50 less than 0.2 µg/mL?
**A:** 0 (no)

**Q:** Answer whether the compound "CCCCCCCC/C=C\CCCCCCCCCCCC(=O)OC[C@H]1O[C@@H]2[C@@H](Oc3nc(=N)ccn32)[C@@H]1OC(=O)CCCCCCCCCCC/C=C\CCCCCCCC.Cl" has EC50 strictly less than 0.2 µg/mL
**A:** 0 (no)

**Q:** Does this compound meet the criterion EC50 < 0.2 µg/mL? "CCCCCCCCCCCCCC(=O)OC[C@H]1O[C@@H]2[C@@H](Oc3nc(=N)ccn32)[C@@H]1OC(=O)CCCCCCCCCCCCC.Cl"
**A:** 0 (no)

**Q:** Is EC50 of "CCCCCCCCCCCCCCCC(=O)OC[C@H]1O[C@@H]2[C@@H](Oc3nc(=N)ccn32)[C@@H]1OC(=O)CCCCCCCCCCCCCCC.Cl" strictly below 0.2 µg/mL?
**A:** 0 (no)

**Q:** In the record for "CCCCCCCCCCCCCCCCCC(=O)OC[C@H]1O[C@@H]2[C@@H](Oc3nc(=N)ccn32)[C@@H]1OC(=O)CCCCCCCCCCCCCCCCC.Cl" , is EC50 less than 0.2 µg/mL?
**A:** 0 (no)

**Q:** Quick check: does "CCCCCCCCC(=O)OC[C@H]1O[C@@H]2[C@@H](Oc3nc(=N)ccn32)[C@@H]1OC(=O)CCCCCCCC.Cl" have EC50 under 0.2 µg/mL?
**A:** 1 (yes)

**Q:** API: query returns whether the compound falls strictly under 0.2 µg/mL in EC50. Query: "C/C=C/C=C/C(=O)OC[C@H]1O[C@@H]2[C@@H](Oc3nc(=N)ccn32)[C@@H]1OC(=O)/C=C/C=C/C.Cl"
**A:** 1 (yes)

**Q:** Say whether its EC50 is strictly beneath 0.2 µg/mL. Entry: "CCCC(=O)OC[C@H]1O[C@@H]2[C@@H](Oc3nc(=N)ccn32)[C@@H]1OC(=O)CCC.Cl"
**A:** 1 (yes)
